Source listed as patent US8268862B2.

Target: SIRT1 (Homo sapiens, UniProt Q96EB6)
Sequence (Q96EB6 1-747): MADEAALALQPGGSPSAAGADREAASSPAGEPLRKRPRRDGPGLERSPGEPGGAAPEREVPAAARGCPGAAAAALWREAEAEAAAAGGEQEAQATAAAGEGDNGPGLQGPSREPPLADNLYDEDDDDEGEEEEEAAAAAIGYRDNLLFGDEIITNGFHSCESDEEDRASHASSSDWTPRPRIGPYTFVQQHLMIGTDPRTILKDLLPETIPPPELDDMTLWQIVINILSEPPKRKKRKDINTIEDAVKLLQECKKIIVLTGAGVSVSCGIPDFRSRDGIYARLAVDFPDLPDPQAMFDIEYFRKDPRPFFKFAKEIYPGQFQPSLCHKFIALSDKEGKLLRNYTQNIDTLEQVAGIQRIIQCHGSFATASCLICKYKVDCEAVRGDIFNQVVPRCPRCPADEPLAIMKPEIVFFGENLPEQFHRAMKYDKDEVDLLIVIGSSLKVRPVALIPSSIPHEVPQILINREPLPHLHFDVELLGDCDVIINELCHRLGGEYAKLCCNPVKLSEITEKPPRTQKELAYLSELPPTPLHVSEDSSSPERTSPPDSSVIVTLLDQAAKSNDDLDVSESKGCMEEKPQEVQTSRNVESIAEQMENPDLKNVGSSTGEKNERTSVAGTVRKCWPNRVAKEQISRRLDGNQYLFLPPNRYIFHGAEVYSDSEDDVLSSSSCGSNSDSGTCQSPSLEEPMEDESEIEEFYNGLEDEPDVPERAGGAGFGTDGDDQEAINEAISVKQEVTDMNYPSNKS
Experiment: mass spectrometry based SIRT1 deacetylation assay (activation)
Format: biochemical
Settings: 0.5 μM peptide substrate, 120 μM βNAD+, 10 nM SIRT1, 25 min at 25° C.; read-out: % FOLD ACT. (percent maximum fold activation of SIRT1)
// reported Emax for each item listed
Give the value, in units of %, as a plain number.

[[record]]
molecule_smiles = "Cc1nc(-c2cccc(C(=O)Nc3ccccc3-c3nc4cc(CN5CCNCC5)cnc4s3)c2)cs1"
value_measured = 446


Entry "O=C(Nc1ccccc1-c1nc2cc(CN3CCNCC3)cnc2s1)c1cc(-c2ccccc2)no1" — recorded Emax = 231

Entry "[2H]c1c([2H])c([2H])c(-c2cccc(C(=O)Nc3ccccc3-c3nc4cc(CN5CCCC5)cnc4s3)c2)c([2H])c1[2H]" — recorded Emax = 224

====

Biological target: SIRT1 (Homo sapiens)
Sequence (Q96EB6 1-747): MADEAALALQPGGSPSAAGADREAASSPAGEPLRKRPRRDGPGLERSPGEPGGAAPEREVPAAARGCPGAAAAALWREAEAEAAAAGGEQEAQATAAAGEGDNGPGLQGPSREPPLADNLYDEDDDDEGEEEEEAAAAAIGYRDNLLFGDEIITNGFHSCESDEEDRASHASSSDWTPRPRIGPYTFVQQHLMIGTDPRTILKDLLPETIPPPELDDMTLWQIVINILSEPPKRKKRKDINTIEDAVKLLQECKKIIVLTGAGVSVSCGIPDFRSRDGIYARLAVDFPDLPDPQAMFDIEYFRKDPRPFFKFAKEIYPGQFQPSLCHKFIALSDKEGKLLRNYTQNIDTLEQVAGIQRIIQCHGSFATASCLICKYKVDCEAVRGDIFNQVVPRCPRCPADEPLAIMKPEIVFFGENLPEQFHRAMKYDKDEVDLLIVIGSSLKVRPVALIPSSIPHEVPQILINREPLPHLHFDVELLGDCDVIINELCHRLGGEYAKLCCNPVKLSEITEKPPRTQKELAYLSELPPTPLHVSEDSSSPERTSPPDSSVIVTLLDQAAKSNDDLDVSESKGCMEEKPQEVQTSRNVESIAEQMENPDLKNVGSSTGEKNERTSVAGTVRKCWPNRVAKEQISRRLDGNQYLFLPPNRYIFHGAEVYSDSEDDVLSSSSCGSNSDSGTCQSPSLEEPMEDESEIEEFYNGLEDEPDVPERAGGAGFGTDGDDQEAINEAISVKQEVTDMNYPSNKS
Assay: mass spectrometry based SIRT1 deacetylation assay (activation)
Type: biochemical
Conditions: 0.5 μM peptide substrate, 120 μM βNAD+, 10 nM SIRT1, 25 min at 25° C.; NA = not active in the assay
Reported metric: EC1.5 (concentration of test compound that results in 150% activation of SIRT1) (NM)
Give the value, in units of NM, as a plain number.

Field: example entries. Status: answers known.
[[record]]
compound = "COCCN1CCN(Cc2cnc3sc(-c4ccccc4NC(=O)c4ccnc(-c5ccccc5)c4)nc3c2)CC1 [Compound 56]"
subject_of_test = "SIRT1 (Homo sapiens)"
value_measured = 458

[[record]]
compound = "O=C(Nc1ccccc1-c1nc2cc(CN3CCOCC3)cnc2s1)c1cccc(-c2nnn[nH]2)c1 [Compound 77]"
subject_of_test = "SIRT1 (Homo sapiens)"
value_measured = 3920

[[record]]
compound = "CC(C)NCc1cnc2sc(-c3ccccc3NC(=O)c3cccc(-c4ccncc4)c3)nc2c1 [Compound 22]"
subject_of_test = "SIRT1 (Homo sapiens)"
value_measured = 2620

[[record]]
compound = "COCCN1CCN(Cc2cnc3sc(-c4ccccc4NC(=O)c4cc(-c5ccccc5)ncn4)nc3c2)CC1 [Compound 87]"
subject_of_test = "SIRT1 (Homo sapiens)"
value_measured = 955

[[record]]
compound = "O=C(Nc1ccccc1-c1nc2cc(CN3CCNCC3)cnc2s1)c1nc2ccccc2s1 [Compound 91]"
subject_of_test = "SIRT1 (Homo sapiens)"
value_measured = 4410


Entry O=C(Nc1ccccc1-c1nc2cc(CN3CCSCC3)cnc2s1)c1ccc2ccccc2n1 [Compound 108] — recorded EC1.5 (concentration of test compound that results in 150% activation of SIRT1) = 1060
